These measurements were taken from ChEMBL document CHEMBL1201862.

System: KM12
experimental protocol: NCI tumour cell line growth inhibition, 48 h
Activity calls are given as the source filed them. No stated cut-off is given here; in the data, active = GI50 up to about 1.1 µM and inactive = higher.
Measured GI50 by item
measurement name: GI50

[[record]]
molecule = "O=C(O)CN1C(=O)CN=C(c2ccccn2)c2cc(Cl)ccc21"
measurement_name = "GI50"
measured = "> 100 µM (inactive)"

[[record]]
molecule = "Cc1cnc(SCCN2CCN(C)CC2)nc1-c1cc2ccccc2s1"
measurement_name = "GI50"
measured = "16.3 µM (inactive)"

[[record]]
molecule = "COC(=O)/C=C\\C(C#N)(C#N)/N=C/c1ccccc1"
measurement_name = "GI50"
measured = "17.5 µM (inactive)"

[[record]]
molecule = "CC12C/C(=C\\c3ccccc3)C(=O)C3C1CCCC32"
measurement_name = "GI50"
measured = "55.1 µM (inactive)"

[[record]]
molecule = "O=C(NNC(=O)c1ccccc1Cl)c1ccccc1O"
measurement_name = "GI50"
measured = "20.1 µM (inactive)"

[[record]]
molecule = "C#CCNC(Cc1c[nH]cn1)C(=O)O (configuration not stated)"
measurement_name = "GI50"
measured = "> 100 µM (inactive)"

[[record]]
molecule = "O=S(O)CCCCSSCc1ccccc1CSSCCCCS(=O)O"
measurement_name = "GI50"
measured = "19 µM (inactive)"

[[record]]
molecule = "COc1ccc(/C=C2\\CCC(C)c3c2nc(N)c(C#N)c3-c2ccc(OC)c(OC)c2)cc1OC (configuration not stated)"
measurement_name = "GI50"
measured = "7.6 µM (inactive)"

[[record]]
molecule = "Cc1[nH]c(=O)nc(S)c1C(=O)NC1C2CCCCC2NC2CCCCC21 (configuration not stated)"
measurement_name = "GI50"
measured = "16.1 µM (inactive)"

[[record]]
molecule = "COc1ccc(-c2cc(O)c3cc(OC)ccc3n2)cc1"
measurement_name = "GI50"
measured = "> 100 µM (inactive)"

[[record]]
molecule = "Nc1ccc2c(c1)CC1c3ccccc3C(C2)c2ccccc21"
measurement_name = "GI50"
measured = "> 100 µM (inactive)"

[[record]]
molecule = "COc1nc(N)nc2c1ncn2C1CC(O)C(CO)O1 (configuration not stated)"
measurement_name = "GI50"
measured = "> 100 µM (inactive)"

